Let's look at some molecules and their measured Activity.
- test_description: Antioxidant activity against beta-carotene and linoleic acid assessed as inhibition of bleaching of beta-carotene at 60 mins by autooxidation assay
- Type: functional
- Parameters: concentration or dose not given beside the values

{"columns": ["structure_notation", "Activity (%)"],
 "data": [
  ["COc1c(O)cc(/C=C/c2cc(O)cc(O)c2)c2c1OC(=O)[C@@]21c2c(O)cc(O)cc2O[C@@H]1c1ccc(O)cc1", 74.3],
  ["O=C1Oc2cc(O)cc(/C=C/c3ccc(O)cc3)c2[C@]12c1c(O)cc(O)cc1O[C@@H]2c1ccc(O)cc1", 76.3],
  ["Oc1ccc(/C=C/c2cc(O)cc(O)c2)cc1", 24.9],
  ["O=C1[C@@H](c2ccc(O)cc2)Oc2cc(O)cc(O)c2[C@@]12c1c(O)cc(O)cc1[C@H](O)[C@H]2c1ccc(O)cc1", 40.6],
  ["O=C1Oc2cc(O)c3c(c2[C@]12c1c(O)cc(O)cc1O[C@@H]2c1ccc(O)cc1)O[C@H](c1ccc(O)cc1)[C@H](O)C3", 24.4],
  ["COc1c(O)cc(/C=C/c2cc(O)cc3c2[C@@]2(C(=O)O3)c3c(O)cc(O)cc3O[C@@H]2c2ccc(O)cc2)cc1O", 59.5],
  ["O=C1Oc2cc(O)cc(/C=C/c3ccc(O)cc3)c2[C@@]12c1c(O)cc(O)cc1O[C@@H]2c1ccc(O)cc1", 52.6],
  ["COc1c(O)cc(/C=C/c2cc(O)cc(O)c2)cc1O", 3.1]
]}
